# Tested on: DU-145 prostate
# protocol_description: NCI tumour cell line growth inhibition, 48 h
attribute_measured: TGI

Just so you know, measured TGI for CC(=O)n1cc(OP(=O)(Oc2ccccc2)Oc2ccccc2)c2ccccc21 came out at > 100 µM

// batch mode: one TGI value per listed entry
1. O=C(O)[C@H](Cc1ccccc1)NCCN1CCC[C@H]1C(=O)O
2. COc1cc2nccc(Oc3ccc(NC(=O)Nc4cc(C)on4)c(Cl)c3)c2cc1OC
3. CCC(=O)Nc1ccc(C)c(-c2ccc(C(=O)NCC3CC3)cc2)c1

stdout:
> 100 µM
> 77.8 µM
> 25 µM

Respectfully, I request TGI for each entry included below.
1. CCN(CC)C(=S)SCN1C(=O)c2ccccc2S1(=O)=O
2. CCCCCCCCCCCCCCCCCCOCC(CCP(=O)(CP(=O)(O)O)Oc1ccccc1)OCCCCCCCCCCCCCCCCCC (stereo unspecified)

stdout:
> 100 µM
> 100 µM

====

# Test system: OVCAR-5 ovarian
# protocol_description: NCI tumour cell line growth inhibition, 48 h
Where a SMILES comes first, the peptide text is derived from it. [ ]: non-standard residue; d: D form. The star is where a group is joined. dTle = CC(C)(C)[C@@H](N)C(=O)O; 4Abz = Nc1ccc(C(=O)O)cc1; NHOH = ON*
attribute_measured: TGI

// TGI value for C/C(=C\c1cc(C(F)(F)F)n(-c2ccc(N)cc2)n1)[C@@H]1C[C@@H]2O[C@]2(C)CCC[C@H](C)[C@H](O)[C@@H](C)C(=O)C(C)(C)[C@@H](O)CC(=O)O1 : > 11.1 µM

// recorded TGI for COc1cc(C(=O)CC2OC(=O)C(Cl)=C2Cl)ccc1Cl (stereo not drawn) : > 100 µM

Please fill in: TGI reported for Oc1cc(N2CCCC2)ccc1/C=N/N1C(=S)N(c2ccccc2)C(=Nc2ccccc2)C1=Nc1ccccc1 = > 100 µM

Sure, the documented TGI for OCc1cc2ccncc2c2c1[nH]c1ccccc12 is 26.7 µM

So for CN(C)c1snc2c1c(=O)n(C)c(=O)n2C , the logged TGI turned out to be > 100 µM

For every item below, please supply its TGI.
1. O=C1/C(=C/c2ccc(Oc3ccccc3)cc2)N=C(c2ccccc2)N1c1ccc(S(=O)(=O)Nc2nccs2)cc1
2. CSC(=S)OC1CC(n2cnc3c(NC(=O)c4ccccc4)ncnc32)OC1CO[Si](C)(C)C(C)(C)C (stereo not drawn)
3. O=c1[nH]c(=O)n(C2CC(O)C(CO)O2)c2nc3ccc4cc5ccccc5cc4c3nc12 (stereo not drawn)
4. CCN(CC)C1C(=O)NC1C#Cc1ccccc1 (stereo not drawn)

stdout:
1: > 100 µM; 2: > 56.2 µM; 3: > 100 µM; 4: > 100 µM

// for each compound in input: emit TGI
1. CSc1nc(C)c(CCOC(C)=O)c(Cl)n1
2. C[N+](C)(C)CC(=O)N/N=C(\C(=O)NC1=C(Cl)C(=O)c2ccccc2C1=O)C(C#N)c1nc(-c2ccc([N+](=O)[O-])cc2)cs1 (stereo not drawn)
3. O=C1C2C(C(=O)N1c1ccccc1)C1([N+](=O)[O-])C=C3c4ccccc4N(C(=O)c4ccccc4)C32C2C(=O)N(c3ccccc3)C(=O)C21 (stereo not drawn)
4. O=C(c1ccccc1)C1C(c2ccccc2)N1S(=O)(=O)c1ccccc1 (stereo not drawn)
5. C[C@@H](NC(=O)[C@H](NC(=O)[C@@H]1CCCN1C(=O)CNC(=O)c1ccc(N)cc1)C(C)(C)C)C(=O)NO (H-[4Abz]GP[dTle][dA]-{NHOH})
6. CC(=O)O[C@@]1(C)[C@@H](C)C(=O)O[C@@H]2CCN3CC=C(COC(=O)[C@]1(C)O)[C@H]23
7. CCOc1ccccc1-c1nc2c(s1)C(=O)c1ccccc1C2=O
8. Cc1ccnc2[nH]c(-c3ccc(F)cc3)cc(=O)c12

stdout:
1. > 100 µM
2. 26.3 µM
3. > 100 µM
4. > 100 µM
5. > 100 µM
6. > 100 µM
7. 40.1 µM
8. > 100 µM

Entry CN1C(=O)C(O)CC1c1ccccc1C(F)(F)F (stereo not drawn) ; TGI = > 100 µM
